- Test system: LOX IMVI
- assay-notes: NCI tumour cell line growth inhibition, 48 h
Counter-ions that a name gives are not always drawn. Active and inactive are the calls of the source. Cut-off read from the data, not from the text of the source: active = GI50 up to about 1.1 µM and inactive = higher.
Entry note: the call must match one of active, inactive

> print(dat)
                                   compound  system.name  category.label
1               CC(=O)Oc1ccn2nc(C)c(Br)c2c1     LOX IMVI        inactive
2  O=C(Nc1ccc(C2=NCCN2)cc1)c1cncc(C(=O)Nc2ccc(C3=NCCN3)cc2)c1     LOX IMVI        inactive
3  COC(=O)C(=O)C1(CCC(C)=O)c2ccccc2-c2ccccc21     LOX IMVI        inactive

Qu. Kindly provide the recorded test outcome for the following compound: O/N=C(\c1nc2ccc(Cl)cc2nc1O)C(O)c1ccc(Cl)cc1Cl (stereo not given)
Ans. inactive

Qu. Called result for Cc1ccc(N2C(=O)CC(=O)N(NC(=O)C(C)Oc3ccccc3C)C2=S)cc1 (stereo not given)
Ans. inactive

Qu. Returns: the outcome recorded for CCCCC(C(=O)CCC(=O)Nc1ccc(Cl)cc1)C(=O)C(C)C (stereo not given) in this assay.
Ans. inactive

Qu. Any idea what this test logged for CCc1ccc2c(c1)N(CC(C)CN(C)C)c1ccccc1S2 (stereo not given) [ETYMEMAZINE HYDROCHLORIDE] ?
Ans. inactive

Qu. // param item: "O=[N+]([O-])c1cccc2nc3ccccc3c(NCCC[N+]3([O-])CCCCC3)c12" ; yields the recorded call
Ans. active

Qu. Lab log entry: CN(CCC(=O)N1CC(CCl)c2ccc([N+](=O)[O-])cc21)CCC(=O)N1CC(CCl)c2ccc([N+](=O)[O-])cc21 (stereo not given) — outcome as called in the assay?
Ans. inactive

Qu. In this assay, the call recorded for CN1[C@@H]2CCCC[C@H]2N(C)P1(=O)C(O)/C=C/c1ccccc1 (stereo not given in full) was what?
Ans. inactive

---

Each entry below carries its reported GI50.
- System: NCI-H522
- assay-notes: NCI tumour cell line growth inhibition, 48 h
Calls of active or inactive are those of the source. No stated cut-off is given here; in the data, active = GI50 up to about 1.1 µM and inactive = higher.

In the examples that follow, each entry is paired with its recorded GI50.
> print(dat)
                                   molecule             reported
1       Cn1c2ccccc2c2ccc3c(c21)C(=O)C=CC3=O   2.96 µM (inactive)
2   CCOP(=O)(OCC)/C(C#N)=C/c1cccn1Cc1ccccc1   23.8 µM (inactive)
3  CC(C)(C)C1=CC(O)(c2c3ccccc3c(C3(O)C=C(C(C)(C)C)C(=O)C(C(C)(C)C)=C3)c3ccccc23)C=C(C(C)(C)C)C1=O  > 100 µM (inactive)
4          COc1ccc(N(C(=O)NCCO)c2ccccc2)cc1  > 100 µM (inactive)
5           CCOC(=O)C(=O)Nc1nc2ccc(OC)cc2s1   > 10 µM (inactive)
6  CCOC(=O)NC(=O)c1cn(CCCOC(=O)NCCCCCCNC(=O)OCCCn2c(=O)c(C(=O)NC(=O)OCC)cn(C)c2=O)c(=O)n(C)c1=O  > 100 µM (inactive)
7       CC(C)(C)OC(=O)NCCCCCCC(=O)Cc1ccccc1  > 100 µM (inactive)
8  c1ccc2c(c1)c1c3n2-c2cc(on2)C3CCC1 (stereo not given)  > 100 µM (inactive)

Qu. Requested field: GI50. Item: COC1=C2C=[N+](C)C3C(=C2C=CC1OC)Cc1cc2c(cc13)OCO2 (stereo not given)
Ans. 4.32 µM (inactive)

Qu. Can you look up the measured GI50 of CC(=O)O[C@H]1[C@@H](OC2CCCC2(c2ccccc2)c2ccccc2)O[N+]([O-])=C[C@@]12COCc1cc3c(cc12)OCO3 (stereo not given in full) for me?
Ans. 1.98 µM (inactive)

Qu. GI50 for "Cc1ccc(-c2c(C#N)c(-c3ccc(Cl)cc3)c(C#N)c(=O)n2NS(=O)(=O)c2ccc(C)cc2)cc1" ?
Ans. 23.1 µM (inactive)

Qu. Please give the measured GI50 for this molecule: COC(=O)C(CC=O)C(=O)C(=O)Nc1cccc(C(F)(F)F)c1 (stereo not given)
Ans. > 100 µM (inactive)

Qu. Requested read-out: GI50. Entry: "O=c1c(Cc2cccc(Cc3c(O)oc4ccccc4c3=O)c2)c(O)oc2ccccc12"
Ans. > 100 µM (inactive)

Qu. Could you tell me which GI50 is on file for "c1ccc([P+](c2ccccc2)(c2ccccc2)C2c3ccccc3-c3ccccc32)cc1" ?
Ans. 2.19 µM (inactive)

Qu. Look up GI50: "Cc1cccc(/C(Br)=C2/OC(=O)c3ccccc32)c1"
Ans. > 100 µM (inactive)

Qu. So what's the measured GI50 for this one? Cc1ccc([S+]([O-])(=Nc2ccccc2)C(C(C)C)C(C)(C)Cl)cc1 (stereo not given)
Ans. 16 µM (inactive)
